STUDY TARGET: Met kinase (Homo sapiens)
MEASUREMENT NOTES: Met kinase inhibition, cell assay
Format: cell-based
Where a name gives a salt, the structure may show the parent alone.
READOUT TYPE: IC50

[[record]]
compound = "O=c1ccc(C2CC2)nn1Cc1cccc(-c2ncc(-c3cnn(CCN4CCCC4)c3)cn2)c1 [Compound A2]"
readout_type = "IC50"
measurement = "1 to 100 nM"

[[record]]
compound = "CC(C)c1ccc(=O)n(Cc2cccc(-c3ncc(OCCCN(C)C)cn3)c2)n1 [Compound A10, formate]"
readout_type = "IC50"
measurement = "100 to 10000 nM"

[[record]]
compound = "CC(C)c1ccc(=O)n(Cc2cccc(-c3ncc(-c4cnn(CCN5CCOCC5)c4)cn3)c2)n1 [Compound A13]"
readout_type = "IC50"
measurement = "100 to 10000 nM"

[[record]]
compound = "O=c1ccc(C2CC2)nn1Cc1cccc(-c2ncc(OC3CCNCC3)cn2)c1 [Compound A11]"
readout_type = "IC50"
measurement = "100 to 10000 nM"

[[record]]
compound = "CN(C)CCCOc1cnc(-c2cccc(Cn3nc(C4CC4)ccc3=O)c2)nc1 [Compound A8]"
readout_type = "IC50"
measurement = "1 to 100 nM"

[[record]]
compound = "O=c1ccc(C2CCC2)nn1Cc1cccc(-c2ncc(-c3cnn(CCN4CCCC4)c3)cn2)c1 [Compound A15]"
readout_type = "IC50"
measurement = "1 to 100 nM"

[[record]]
compound = "CN1CCC(Oc2cnc(-c3cccc(Cn4nc(C5CC5)ccc4=O)c3)nc2)CC1 [Compound A9]"
readout_type = "IC50"
measurement = "1 to 100 nM"

[[record]]
compound = "Cc1nc(-c2cccc(Cn3nc(C4CC4)ccc3=O)c2)no1 [Compound A7]"
readout_type = "IC50"
measurement = "> 10000 nM"


###

Each record here notes measured pIC50.
STUDY TARGET: Met kinase (Homo sapiens)
MEASUREMENT NOTES: Met kinase inhibition, enzyme assay (flashplate method)
Assay type: biochemical
Design: 6His (N); purchased Upstate 14-526; host or cells: Sf21 insect cells (S. frugiperda), baculovirus
pIC50: −log10 of the molar value.
READOUT TYPE: pIC50

[[record]]
entry_smiles = "Cc1ccc(=O)n(Cc2cccc(-c3ncc(-c4cnn(C5CCNCC5)c4)cn3)c2)n1"
readout_type = "pIC50"
measurement = "7.00 to 9.00"

[[record]]
entry_smiles = "CN1CCN(c2cnc(-c3cccc(Cn4nc(C5CC5)ccc4=O)c3)nc2)CC1"
readout_type = "pIC50"
measurement = "7.00 to 9.00"

[[record]]
entry_smiles = "Nc1cnc(-c2cccc(Cn3nc(C4CC4)ccc3=O)c2)nc1"
readout_type = "pIC50"
measurement = "5.00 to 7.00"

[[record]]
entry_smiles = "O=c1ccc(C2CC2)nn1Cc1cccc(-c2ncc(-c3cnn(CCN4CCCC4)c3)cn2)c1"
readout_type = "pIC50"
measurement = "7.00 to 9.00"

[[record]]
entry_smiles = "O=c1ccc(C2CC2)nn1Cc1cccc(-c2ncc(-c3cnn(C4CCNCC4)c3)cn2)c1"
readout_type = "pIC50"
measurement = "7.00 to 9.00"

[[record]]
entry_smiles = "Cc1nc(-c2cccc(Cn3nc(C4CC4)ccc3=O)c2)no1"
readout_type = "pIC50"
measurement = "5.00 to 7.00"

[[record]]
entry_smiles = "O=c1ccc(C2CC2)nn1Cc1cccc(-c2ncc(OC3CCNCC3)cn2)c1"
readout_type = "pIC50"
measurement = "7.00 to 9.00"

[[record]]
entry_smiles = "O=c1ccc(C2CCC2)nn1Cc1cccc(-c2ncc(-c3cnn(CCN4CCCC4)c3)cn2)c1"
readout_type = "pIC50"
measurement = "7.00 to 9.00"


###

STUDY TARGET: Met kinase (Homo sapiens, UniProt P08581)
Sequence (P08581 25-1390): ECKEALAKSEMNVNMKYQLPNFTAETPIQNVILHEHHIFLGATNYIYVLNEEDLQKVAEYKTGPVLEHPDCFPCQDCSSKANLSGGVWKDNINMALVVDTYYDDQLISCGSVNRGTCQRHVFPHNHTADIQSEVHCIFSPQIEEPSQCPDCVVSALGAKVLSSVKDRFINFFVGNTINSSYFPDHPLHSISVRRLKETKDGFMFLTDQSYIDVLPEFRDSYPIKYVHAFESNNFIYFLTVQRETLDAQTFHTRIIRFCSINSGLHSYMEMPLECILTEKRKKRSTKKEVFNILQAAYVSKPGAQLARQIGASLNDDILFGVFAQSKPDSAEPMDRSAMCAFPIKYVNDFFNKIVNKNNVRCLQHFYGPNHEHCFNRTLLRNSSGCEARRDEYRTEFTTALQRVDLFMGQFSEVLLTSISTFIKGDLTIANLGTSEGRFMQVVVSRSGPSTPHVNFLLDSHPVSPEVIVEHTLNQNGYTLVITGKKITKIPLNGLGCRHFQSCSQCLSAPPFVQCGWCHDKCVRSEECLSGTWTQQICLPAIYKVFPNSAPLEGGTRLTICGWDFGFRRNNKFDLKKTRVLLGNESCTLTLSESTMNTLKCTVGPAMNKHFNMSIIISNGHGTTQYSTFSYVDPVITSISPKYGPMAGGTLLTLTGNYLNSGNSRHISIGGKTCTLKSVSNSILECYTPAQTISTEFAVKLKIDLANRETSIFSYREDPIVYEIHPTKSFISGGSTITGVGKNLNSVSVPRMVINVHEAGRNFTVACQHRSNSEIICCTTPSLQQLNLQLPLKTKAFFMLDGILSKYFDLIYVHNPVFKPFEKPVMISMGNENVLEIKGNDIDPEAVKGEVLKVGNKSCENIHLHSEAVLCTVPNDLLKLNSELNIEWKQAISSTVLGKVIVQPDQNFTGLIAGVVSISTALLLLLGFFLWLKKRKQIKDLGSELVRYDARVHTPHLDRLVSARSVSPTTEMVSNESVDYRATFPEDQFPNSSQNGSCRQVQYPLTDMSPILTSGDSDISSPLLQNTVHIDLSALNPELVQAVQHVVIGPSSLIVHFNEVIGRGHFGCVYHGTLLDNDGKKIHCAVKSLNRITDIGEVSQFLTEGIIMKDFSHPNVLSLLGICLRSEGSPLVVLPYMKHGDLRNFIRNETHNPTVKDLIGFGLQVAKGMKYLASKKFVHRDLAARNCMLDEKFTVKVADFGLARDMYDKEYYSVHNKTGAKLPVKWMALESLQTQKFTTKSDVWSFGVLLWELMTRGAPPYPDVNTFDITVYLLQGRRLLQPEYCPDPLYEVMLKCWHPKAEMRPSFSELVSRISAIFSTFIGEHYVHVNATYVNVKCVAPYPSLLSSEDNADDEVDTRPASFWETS
MEASUREMENT NOTES: Met kinase inhibition, cell assay
Assay type: cell-based
READOUT TYPE: IC50

[[record]]
entry_smiles = "Nc1cnc(-c2cccc(Cn3nc(C4CC4)ccc3=O)c2)nc1"
measurement = "100 to 10000 nM"

[[record]]
entry_smiles = "O=c1ccc(C2CC2)nn1Cc1cccc(-c2ncc(-c3cnn(C4CCNCC4)c3)cn2)c1"
measurement = "1 to 100 nM"

[[record]]
entry_smiles = "O=c1ccc(C2CC2)nn1Cc1cccc(-c2ncc(Br)cn2)c1"
measurement = "100 to 10000 nM"

[[record]]
entry_smiles = "O=c1ccc(C2CC2)nn1Cc1cccc(-c2ncc(-c3cnn(CCN4CCOCC4)c3)cn2)c1"
measurement = "1 to 100 nM"


###

Listing: IC50 of selected compounds
STUDY TARGET: UniProt P08581
MEASUREMENT NOTES: Met kinase inhibition, cell assay
Type: cell-based
READOUT TYPE: IC50

[[record]]
entry_smiles = "CN1CCN(c2cnc(-c3cccc(Cn4nc(C5CC5)ccc4=O)c3)nc2)CC1"
measurement = "1 to 100 nM"

[[record]]
entry_smiles = "Cc1ccc(=O)n(Cc2cccc(-c3ncc(-c4cnn(C5CCNCC5)c4)cn3)c2)n1"
measurement = "100 to 10000 nM"

[[record]]
entry_smiles = "O=c1cccnn1Cc1cccc(-c2ncc(-c3cnn(CCN4CCOCC4)c3)cn2)c1"
measurement = "100 to 10000 nM"

[[record]]
entry_smiles = "Cc1cnc(-c2cccc(Cn3nc(C4CC4)ccc3=O)c2)nc1"
measurement = "100 to 10000 nM"

